- Assay info: solvent given as SMILES
- Condition: in C1CCOC1
Recorded absorption maximum by entry
Parameter measured: absorption maximum (nm)

• Cc1cc(C)c(B(c2c(C)cc(C)cc2C)c2cc3cc(N(C)C)c4ccccc4c3c3c2ccc2ccccc23)c(C)c1 = 431
• CC(C)(C)c1ccc(C2=c3sc4ccccc4c3=[N+]3C2=Nc2c(-c4ccc(C(C)(C)C)cc4)c4sc5ccccc5c4n2[B-]3(F)F)cc1 = 709
• CC1=CC(C)=[N+]2C1=C(c1ccc(N3CCCCC3)cc1)c1c(C)cc(C)n1[B-]2(F)F = 499
• CC(=O)c1ccc(-c2cnc3nn4ccccc4c3c2)cc1 = 386
• CN(C)c1ccc(C(=O)Nc2ccc(F)cc2)cc1 = 311
• CCc1nc2c(nc1CC)C(c1ccccc1)=[N+]1C2=Nc2c3nc(CC)c(CC)nc3c(-c3ccccc3)n2[B-]1(F)F = 685
• CCCCOc1ccc(-c2cc3c(o2)c(-c2ccc(OCCCC)cc2)c2n3[B-](F)(F)[N+]3=Cc4c(-c5ccc(OCCCC)cc5)c5oc(-c6ccc(OCCCC)cc6)cc5n4[B-](F)(F)[N+]3=C2)cc1 = 619
• COc1ccc(-c2c3ccc([nH]3)c3nc(c(-c4ccc([N+](=O)[O-])cc4)c4ccc([nH]4)c4ccc([nH]4)c(-c4ccc(OC)cc4)c4ccc2o4)C=C3)cc1 = 446

* * *

- Assay info: solvent given as SMILES
- Condition: in ClCCl
Kindly return rule met if reported absorption maximum is no lower than 400 nm; return rule not met if it is lower.

- CCn1c2ccc(-c3ccc(-c4cccs4)s3)cc2c2cc(-c3ccc(-c4cccs4)s3)ccc21: rule not met
- c1ccc(-n2c(-c3ccc(N(c4ccc(-c5ccc(N(c6ccc(-c7nc8c9ccccc9c9ccccc9c8n7-c7ccccc7)cc6)c6ccc(-c7nc8c9ccccc9c9ccccc9c8n7-c7ccccc7)cc6)cc5)cc4)c4ccc(-c5nc6c7ccccc7c7ccccc7c6n5-c5ccccc5)cc4)cc3)nc3c4ccccc4c4ccccc4c32)cc1: rule not met
- CCCCn1c(-c2ccc(-c3nnc(-c4ccc(-c5nc(-c6ccccc6)c(-c6ccccc6)n5CCCC)cc4)o3)cc2)nc(-c2ccccc2)c1-c1ccccc1: rule not met
- CCCCN(CCCC)c1ccc(C#Cc2cc(C#Cc3ccc(C(F)(F)F)cc3)c(C#Cc3ccc(N(CCCC)CCCC)cc3)cc2C#Cc2ccc(C(F)(F)F)cc2)cc1: rule met
- C=CCOc1nnc(OCCC(F)(F)C(F)(F)C(F)(F)C(F)(F)C(F)(F)C(F)(F)C(F)(F)C(F)(F)F)nn1: rule met
- c1ccc(N(c2ccccc2)c2ccc(-c3ccc(-c4cc(-c5ccccn5)nc(-c5ccccn5)c4)cc3)cc2)cc1: rule not met

* * *

- Assay info: solvent given as SMILES
- Condition: in C1CCOC1
absorption maximum: recorded values
Parameter measured: absorption maximum

- CCn1c2ccc(/C=C/c3ccc4c(c3)c3cc(-c5nc6ccccc6s5)ccc3n4CC)cc2c2cc(-c3nc4ccccc4s3)ccc21: 361 nm
- OB(O)c1ccc(-c2ccc(N(c3ccccc3)c3ccccc3)cc2)cc1: 331 nm
- COc1ccccc1C1=[N+]2C(=Cc3c4cc5ccccc5cc4c(-c4ccccc4OC)n3[B-]2(F)F)c2cc3ccccc3cc21: 738 nm
- CC(C)(C)c1ccc(/C=C/c2ccc(N(c3ccc(/C=C/c4ccc(C(C)(C)C)cc4)cc3)c3ccc(-c4nc5ccccc5nc4-c4ccc(N(c5ccc(/C=C/c6ccc(C(C)(C)C)cc6)cc5)c5ccc(/C=C/c6ccc(C(C)(C)C)cc6)cc5)cc4)cc3)cc2)cc1: 375 nm
- CCOC(=O)C1=C(C)NC2=C(C(=O)c3ccccc32)C1c1ccc(N(C)C)cc1 (stereo not drawn): 374 nm
- CC1=NN(c2ccccc2)C(=O)/C1=C\c1cn(-c2ccccc2)nc1-c1ccc([N+](=O)[O-])cc1: 343 nm
- FC(F)(F)C(F)(F)C(F)(F)c1nc2c(-c3ccsc3)cc3c4cc(-c5ccsc5)c5nc(C(F)(F)C(F)(F)C(F)(F)F)nc6c(-c7ccsc7)cc(c7cc(-c8ccsc8)c(n1)c2c37)c4c56: 538 nm
- OCCSc1cccc2[n+]1[B-](F)(F)n1c(c3cccc4cccc1c43)=N2: 485 nm
- COc1ccc2n1[B-](F)(F)[N+]1=C(c3ccccc3)C=CC1=C2c1ccc(C)cc1: 528 nm
- CN(C)c1ccc(/C=C/c2nc3ccccc3s2)cc1: 396 nm
- F[B-]1(F)OC(c2ccccc2)=Nc2sc(-c3ccccc3)n[n+]21: 332 nm
- O=C1c2ccccc2S(=O)(=O)c2ccc(-n3c4ccccc4c4ccccc43)cc21: 404 nm
- O=C1CCCC2=C1CC1=C(CCCC1=O)N2NC(=O)c1ccccc1: 366 nm
- Cn1c(=O)c(/N=N/c2ccc(S(=O)(=O)O)c3ccccc23)c(O)c2ccccc21: 467 nm
- CC1=C(C#Cc2ccccc2)C(C)=[N+]2C1=C(c1ccccc1)c1c(C)c(C#Cc3ccccc3)c(C)n1[B-]2(F)F: 573 nm
- CCOC(=O)/C(C#N)=C\c1cn(-c2ccccc2)nc1-c1ccccc1: 347 nm
- COc1ccc2cc(-c3ccc(C)cc3)c(=O)oc2c1: 342 nm
- N#CC1=C(c2ccc(-c3cccs3)s2)CC1: 366 nm

* * *

The entries below are paired with their reported absorption maximum.
- Assay info: solvent given as SMILES
- Condition: in ClC(Cl)Cl
Parameter measured: absorption maximum (nm)

* CCCCCCCCCCCCCCCC[n+]1ccc(/C=C(\C)c2ccccc2)cc1 | 384
* CCCCn1c2ccc(-c3ccc(OC)cc3)cc2c2ccc3c4cc(-c5ccc(OC)cc5)ccc4n(CCCC)c3c21 | 338
* CCCCCCCN1C(=CC2=C([O-])C(=CC3=[N+](CCCCCCC)c4ccccc4C3(C)C)C2=C(C#N)C#N)Sc2ccccc21 | 690
* COc1ccc(-c2nc3ccccc3nc2-c2ccc(OC)cc2)cc1 | 368
* O=C1c2ccc3c4c(NC5CCCCC5)cc5c6c(ccc(c7c(NC8CCCCC8)cc(c2c37)C(=O)N1C1CCCCC1)c64)C(=O)N(C1CCCCC1)C5=O | 703
* CN(C)CCNc1ccc([N+](=O)[O-])cc1[N+](=O)[O-] | 350
* CCC1=C(C)C(=O)n2c1cc1c(C)c(CC(=O)OC)c(C)n1c2=O | 423
* COc1ccc2c(-c3nc(-c4cccc(Br)c4)no3)cc(=O)oc2c1 | 360
* COc1ccc2c(-c3nc(-c4cccc(C)c4)no3)cc(=O)oc2c1 | 403
* c1cc2cccc3c4cccc5cccc(c(c1)c23)c54 | 438.5
* CCCCCCn1c2cc(/C=C/c3ccccc3)ccc2c2ccc(/C=C/c3ccccc3)cc21 | 390.62
* c1ccc(-c2ccc(-c3nc(-c4ccccc4)c(N(c4ccccc4)c4ccccc4)[se]3)cc2)cc1 | 394
* CCN(CC)c1ccc2c(c1)OC1=C(/C=C/C3=[N+](C)c4ccccc4C3(C)C)CCCC1=C2c1ccccc1C(=O)O | 716
* Cc1cccc(C)c1-c1cc2c(C)c3c4cc5nc6cc7c(cc6nc5cc4c3c(C)c2cc1-c1c(C)cccc1C)c1c(C)c2cc(-c3c(C)cccc3C)c(-c3c(C)cccc3C)cc2c(C)c71 | 503
* COc1ccc(O)cc1C=O | 349
* CCOC(=O)C1=C(C)NC2=C(C(=O)c3ccccc32)C1c1ccc(N(C)C)cc1 (stereo not drawn) | 383
* COc1ccc(/C=C/C2=CC(/C=C/c3ccc(OC)cc3)=[O+][B-](OC(C)=O)(OC(C)=O)O2)cc1 | 464
* CCCCN1C(=O)C(=C/C=C/C=C/C=C2N(CCCC)c3ccccc3N2CCCC)C(=O)N(CCCC)C1=S | 658

* * *

- Assay info: solvent given as SMILES
- Condition: in ClCCl
Reported absorption maximum values for the following compounds.
Parameter measured: absorption maximum (nm)

- CCCCCCOc1ccc(N(c2ccc(OCCCCCC)cc2)c2ccc(-c3sc(-c4ccc(N(c5ccc(OCCCCCC)cc5)c5ccc(OCCCCCC)cc5)cc4)c4nc(-c5ccccc5)c(-c5ccccc5)nc34)cc2)cc1: 600
- COc1ccc2c(c1)CCc1c(-c3ccccc3)c3n(c1-2)[B-](F)(F)[N+]1=C2C=NC=CN2[B-](F)(F)[N+]1=C3: 546
- CN(C)c1ccc(C#Cc2ncnc3ccccc23)cc1: 384
- CCn1c2ccccc2c2cc(C#Cc3cc(C#Cc4ccc5c(c4)c4ccccc4n5CC)ncn3)ccc21: 386

* * *

- Assay info: solvent given as SMILES
- Condition: in ClC(Cl)Cl
Parameter measured: absorption maximum (nm)

- COc1cc2c3cc(OC)c(OC)cc3c3cc4c(C)cc(=O)oc4cc3c2cc1OC: 368
- CCCCCCCCN1C(=O)c2ccc3c4c(-c5ccc6c(c5)c5ccccc5n6-c5ccccc5)cc5c6c(cc(-c7ccc8c(c7)c7ccccc7n8-c7ccccc7)c(c7ccc(c2c37)C1=O)c64)C(=O)N(CCCCCCCC)C5=O: 563
- CCCCCCC(CCCCCC)N1C(=O)c2cccc3c(-c4ccc(OC)cc4)ccc(c23)C1=O: 364.8
- CCC1=C(C)C2=C(c3cc(C(=O)Cl)cc(C4=C5C(C)=C(CC)C(C)=[N+]5[B-](F)(F)n5c(C)c(CC)c(C)c54)c3)c3c(C)c(CC)c(C)n3[B-](F)(F)[N+]2=C1C: 534
